Test system: enterococci (Enterococcus hirae)
Procedure Details: Growth experiment of enterococci (secondary screening), OD600 at pH 7.0 and pH 8.5
Format: cell-based
Set-up: concentration or dose not given beside the values
Test Conditions: Table 4; (1,2,4-oxadiazol-3-yl)phenyl derivatives
Experimental Readout: Growth inhibition rate (%)
Please provide the amount together with its unit, number first.

>>> print(df.to_string())
                                   compound        experimental_readout  result
0  Cc1ccccc1OCc1nc(-c2ccc(NC(=O)c3cccs3)cc2)no1 [Compound V-234]  Growth inhibition rate (%)   75.5%

Field: Growth inhibition rate (%). Fill in for each record below.
1. Cc1ccc(C(=O)Nc2ccc(-c3noc(COc4cccc(C)c4C)n3)cc2)s1 [Compound V-234-03]
2. CCCc1ccc(OCc2nc(-c3ccc(NC(=O)c4cccs4)cc3)no2)cc1 [Compound V-234-01]
3. Cc1cccc(OCc2nc(-c3ccc(NC(=O)c4cccs4)cc3)no2)c1C [Compound V-234-02]

## Result
72.0%
76.9%
74.8%

* * *

Target Or Test System: V-ATPase (purified from enterococci or recombinant E. coli) (Enterococcus hirae, UniProt P43439+P43457)
Construct: made in house; host or cells: Enterococcus hirae (native) or recombinant E. coli
Procedure Details: ATPase activity measurement (molybdenum blue method, primary screening)
Assay type: biochemical
Test Conditions: IC50 (nM), Table 3; 2-phenyl benzimidazole derivatives
Answer each item with its documented IC50.
Answers are plain numbers, in nM.

                           chem_smiles  result_number
0  Cc1ccc2nc(-c3ccc(N(C)C)cc3)[nH]c2c1             85

Let us examine a further case.
## Task // returns reported IC50 for input Cc1ccc2[nH]c(-c3ccc(N4CCCC4)cc3)nc2c1
## Result 50

* * *

Target Or Test System: V-ATPase (purified from enterococci or recombinant E. coli) (Enterococcus hirae, UniProt P43439+P43457)
Construct: made in house; host or cells: Enterococcus hirae (native) or recombinant E. coli
Procedure Details: ATPase activity measurement (molybdenum blue method, primary screening)
Type: biochemical
Test Conditions: IC50 (nM), Table 2; inhibition of V-ATPase ATPase activity, pH 8.5 buffer
Experimental Readout: log10(IC50) (log10 of the value in nM)
Please be aware that the numbers have been log10-transformed from IC50 in nM.

Consider the following illustrative entries.
Compound	Result Number
CC(Cc1ccc(O)c(O)c1)C(C)Cc1ccc(O)c(O)c1 (stereo not shown)	2.60
CCCCCCCCCOc1ccc(C=C2C(=O)NC(=O)NC2=O)cc1	1.30
Cc1ccccc1OCc1nc(-c2ccc(NC(=O)c3cccs3)cc2)no1	1.60
CCC(C)C1OC2(CCC1C)CC1CC(CC=C(C)C(OC3CC(OC)C(OC4CC(OC)C(O)C(C)O4)C(C)O3)C(C)C=CC=C3COC4C(O)C(C)=CC(C(=O)O1)C34O)O2 (stereo not shown)	4.00
CC1=C(/C=C/C(C)=C/C=C/C(C)=C/C(=O)Nc2ccc(O)cc2)C(C)(C)CCC1	1.90
Cc1ccc2nc(-c3ccc(N(C)C)cc3)[nH]c2c1	1.93

Field: log10(IC50). Fill in for each record below.
1. O=C1N=C(NC2CCCC2)S/C1=C\c1ccc(OC(F)F)cc1OC(F)F
2. CN(C)c1ccc2nc3ccc(N(C)C)cc3[s+]c2c1
3. CCCCCOc1ccc(NC(=O)c2cccs2)cc1
4. O=C1N=C(O)N=C(O)C1=Cc1ccc(-c2ccc([N+](=O)[O-])cc2)o1

## Result
1.90
3.48
2.00
2.40

* * *

Target Or Test System: V-ATPase (purified from enterococci or recombinant E. coli) (Enterococcus hirae, UniProt P43439+P43457)
Construct: made in house; host or cells: Enterococcus hirae (native) or recombinant E. coli
Procedure Details: ATPase activity measurement (molybdenum blue method, primary screening)
Assay type: biochemical
Test Conditions: Table 2; inhibition of V-ATPase ATPase activity, pH 8.5 buffer; read-out: IC50
Experimental Readout: pIC50
Answers are plain numbers, as −log10 of the molar value.

Consider the following illustrative entries.
In [3]: df
Out[3]:
                                   compound  result_number
0  O=C(c1cnc(Nc2nc3ccccc3o2)nc1)c1cc(Cl)cc(Cl)c1O           5.30
1       CCCCC#Cc1cncc(C(=O)N/N=C/c2cccs2)c1           5.60
2                  CCCCCCCCc1ccc(O)c(C=O)c1           6.07
3  O=C(NC(c1ccccc1)c1cc([N+](=O)[O-])c2cccnc2c1O)C1CCCCC1 (stereo not shown)           5.70
4  COc1ccc(C(=O)N/N=C/C(C)=C/c2ccc(C(C)C)cc2)cc1           6.00

Field: pIC50. Fill in for each record below.
1. CCCCC1CCC(C(=O)Oc2ccc(C=O)c(O)c2)CC1 (stereo not shown)
2. N=C(N)Nc1nc(-c2ccccc2)c2cc(F)ccc2n1
3. COc1ccc(C(c2ccc3cccnc3c2O)N2CCOCC2)cc1 (stereo not shown)
4. CCCOc1ccc(/C=N/NC(=N)N)c(OCCC)c1
5. CN(C)C(=S)N/N=C1\C(=O)C(c2ccccc2)(c2ccccc2)c2ccccc21

## Result
1. 5.35
2. 5.60
3. 5.40
4. 5.35
5. 6.30
